Tested on: MOLM14
Experiment: Proliferation assay (spheroid assay) MOLM14
Type: cell-based, human
Settings: Homo sapiens, MOLM-14, MOLM14; averaged values; read-out: Spheroid assay MOLM14 (IC50 (μM))
Exercise: state measured IC50 for each of the compounds provided.
One number for each entry, in µM.

Answered cases to consult:
[[record]]
compound = "CC(C)C(c1cnn(C(C)C)c1)N1CC2(CCN(c3ncnc4sc(CC(F)(F)F)cc34)C2)C1 (stereo not drawn) [Compound 214]"
value_reported = 1.4

[[record]]
compound = "CC(C)C(Cc1ccccc1)N1CC2(CCN(c3ncnc4sc(CC(F)(F)F)cc34)C2)C1 (stereo not drawn) [Compound 182]"
value_reported = 1.9

[[record]]
compound = "CC(C)[C@H](C1CCOCC1)N1CC2(CCN(c3ncnc4sc(CC(F)(F)F)cc34)C2)C1 [Compound 193]"
value_reported = 1.7

[[record]]
compound = "NCCCOc1cccc(CN2CC3(CCN(c4ncnc5sc(CC(F)(F)F)cc45)C3)C2)c1 [Compound 37]"
value_reported = 3.1

[[record]]
compound = "FC(F)(F)Cc1cc2c(N3CCCC4(CCN(Cc5ccccc5)C4)C3)ncnc2s1 (racemic) [Compound 18]"
value_reported = 7.7

[[record]]
compound = "FC(F)(F)CCN1CC2(CCN(c3ncnc4sc(CC(F)(F)F)cc34)C2)C1 [Compound 2]"
value_reported = 14.6


Would you mind giving IC50 for every compound in the list below?
1. O=C([C@@H]1C[C@@H](F)CN1)N1CC2(C1)CN(c1ncnc3sc(CC(F)(F)F)cc13)C2 [Compound 89]
2. CC(C)C(c1cnn(CCO)c1)N1CC2(CCN(c3ncnc4sc(CC(F)(F)F)cc34)C2)C1 (stereo not drawn) [Compound 62]
3. CC(C)[C@@H](N1CC2(CCN(c3ncnc4sc(CC(F)(F)F)cc34)C2)C1)C1(F)CN(C)C1 [Compound 304a]
4. CC(C)[C@H](C1CN(C)C1)N1CC2(CCN(c3ncnc4sc(CC(F)(F)F)cc34)C2)C1 [Compound 196]

10.5
4
1.3
1.1

Value sought for every listed compound: IC50.
1. CC(C)[C@H](c1cnn(C)c1)N1CC2(CCN(c3ncnc4sc(CC(F)(F)F)cc34)C2)C1 [Compound 274]
2. Cc1ccc(CN2CC[C@@]3(CCN(c4ncnc5sc(CC(F)(F)F)cc45)C3)C2)cc1 (single isomer, unassigned) [Compound 289]

[2.3, 1.3]
